I'd appreciate it if you could supply EC50 values for the items below.
Target: T1, human CLDN18.2 (human)
T1 construct: also called hCLDN18.2; Claudin-18 splice variant 2
Assay: FACS, HEK293-CLDN18.2 cells
Report the figure in µg/mL without appending any unit label.

Ask: Tell me the measured EC50 of 26G6 (antibody, V domains shown, mouse hybridoma antibody; also called hybridoma antibody 26G6) VH: EFQLQQSGPELEKPGASVKISCKTSGYSFTGYNMNWVKQSNGQSLEWIGHIDPYYVTTTYNQKFRGKATLTVDKSSSTAYMQLKSLTSEDSAVYYCARSFYGNAFDYWGQGTTLTVSS VL: DIVMTQSPSSLTVTAGEKVTMSCKSSQSLFNSGNQKNYLTWYQQKPGQPPKLLIYWASTRESGVPDRFTGSGSGTDFTLTISSVQAEDLAVYYCQNDYSFPFTFGSGTKLEIK , please.
Reply: 0.76

Ask: Tell me the measured EC50 of 18B10 (antibody, V domains shown, mouse hybridoma antibody; also called hybridoma antibody 18B10) VH: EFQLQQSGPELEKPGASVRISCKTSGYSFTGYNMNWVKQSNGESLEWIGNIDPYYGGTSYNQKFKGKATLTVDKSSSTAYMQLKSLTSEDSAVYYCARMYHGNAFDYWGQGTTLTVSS VL: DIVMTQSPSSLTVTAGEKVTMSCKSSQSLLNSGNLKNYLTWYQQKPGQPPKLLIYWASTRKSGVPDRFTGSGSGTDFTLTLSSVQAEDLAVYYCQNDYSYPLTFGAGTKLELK , please.
Reply: 0.81

Ask: Tell me the measured EC50 of 12E9 (antibody, V domains shown, mouse hybridoma antibody; also called hybridoma antibody 12E9) VH: EFQLQQSGPELEKPGASVRISCKTSGYSFTGYNMNWVKQSNGESLEWIGNIDPYYGGTRYNQKFKGKATLTVDKSSSTAYMQLKSLTSEDSAVYYCARSYYGNAFDYWGQGTTLTVSS VL: DIVMTQSPSSLTVTAGEKVTMSCKSSQNLLNNGNQKNYLTWYQQKPGQPPKLLIYWASTRESGVPDRFTGSGSGTDFILTISSVQAEDLAVYYCQNDYSFPFTFGAGTKLELK , please.
Reply: 0.52
